Test system: 188146-221-R-J1-PDC complex spheroid viability
Experimental protocol: Anticancer human tumor 188146-221-R-J1-PDC patient-derived colon adenocarcinoma cell line growth inhibition [POLQ]
Condition notes: second compound 1 µM; first compound 0.0316 µM; stronger effect = lower value
Readout: viability, T/C (%)
Response body: numeric value in %, unit text excluded.

The cases that follow already have their viability, T/C on record.
# Compound, viability, T/C (%)
data = [
    ("CC1COCCN1c1cc(C2(O)CC3CCC(C2)O3)c2cnn(-c3ccn[nH]3)c2n1 (stereo not given) + COC1C(OC(N)=O)C(O)C(Oc2ccc3c(O)c(NC(=O)c4ccc(O)c(CC=C(C)C)c4)c(=O)oc3c2C)OC1(C)C", 93.8),
    ("CC1COCCN1c1cc(-c2ccnn2C)c2ccnc(-c3ccn[nH]3)c2n1 (stereo not given) + COC1C(OC(N)=O)C(O)C(Oc2ccc3c(O)c(NC(=O)c4ccc(O)c(CC=C(C)C)c4)c(=O)oc3c2C)OC1(C)C", 83.3),
    ("C=CC(=O)N1CCN(c2nc(=O)n(-c3c(C)ccnc3C(C)C)c3nc(-c4c(O)cccc4F)c(F)cc23)C(C)C1 (stereo not given) + Nc1ccc(C#CCN(C(=O)Cc2ncc(C(F)(F)F)cc2C(F)(F)F)c2ccc(F)cc2)nn1", 108),
]

Looking up CCc1cc2c(N3CCc4c(cc(Cn5ccnc5)cc4-c4cn(C)nc4C(F)(F)F)C3=O)ccnc2c(OC)n1 + COC1C(OC(N)=O)C(O)C(Oc2ccc3c(O)c(NC(=O)c4ccc(O)c(CC=C(C)C)c4)c(=O)oc3c2C)OC1(C)C , I see its viability, T/C listed as 103

What the record says about Nc1ccn(C2OC(CO)C(O)C2(F)F)c(=O)n1 (stereo not given) + Cc1cccc(N(C)C(=O)C2C(O)CCN2c2nc(C)cc(C(F)(F)F)c2C#N)c1 : viability, T/C is 28.1

----------
Test system: 188146-221-R-J1-PDC complex spheroid viability
Experimental protocol: Anticancer human tumor 188146-221-R-J1-PDC cell line growth inhibition [POLQ];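 further: spheroids exposed to compounds for seven days; 100% = DMSO vehicle control viability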
Condition notes: second compound 10 µM; first compound 10 µM; stronger effect = lower value
Label Y when viability, T/C is strictly below 40%; otherwise label N.

// known answers, use as guide
# Compound, Assayed system, Class assignment
rows = [
    ("COc1cccc2c1C(=O)c1c(O)c3c(c(O)c1C2=O)CC(O)(C(=O)CO)CC3OC1CC(N)C(O)C(C)O1 (configuration not stated) + Cc1cccc(N(C)C(=O)C2C(O)CCN2c2nc(C)cc(C(F)(F)F)c2C#N)c1", "188146-221-R-J1-PDC complex spheroid viability", "Y"),
    ("CCc1cc2c(N3CCc4c(cc(Cn5ccnc5)cc4-c4cn(C)nc4C(F)(F)F)C3=O)ccnc2c(OC)n1 + Nc1ccc(C#CCN(C(=O)Cc2ncc(C(F)(F)F)cc2C(F)(F)F)c2ccc(F)cc2)nn1", "188146-221-R-J1-PDC complex spheroid viability", "N"),
    ("COc1ccc([C@@H](O)c2cc(-c3ncnc4cc(N5CCOCC5)ccc34)c(F)cc2Cl)nn1 + Cc1cccc(N(C)C(=O)C2C(O)CCN2c2nc(C)cc(C(F)(F)F)c2C#N)c1", "188146-221-R-J1-PDC complex spheroid viability", "Y"),
]

// query Quick check: does O=c1[nH]cc(F)c(=O)[nH]1 + Nc1ccc(C#CCN(C(=O)Cc2ncc(C(F)(F)F)cc2C(F)(F)F)c2ccc(F)cc2)nn1 have viability, T/C under 40%?
// result N

// query Is the reported viability, T/C for C#Cc1c(F)ccc2cc(O)cc(-c3ncc4c(N5CC6CCC(C5)N6)nc(OCC56CCCN5CC(F)C6)nc4c3F)c12 (configuration not stated) + Nc1ccc(C#CCN(C(=O)Cc2ncc(C(F)(F)F)cc2C(F)(F)F)c2ccc(F)cc2)nn1 strictly below 40%?
// result N

// query State whether 40% exceeds viability, T/C recorded for CC1COCCN1c1cc(C2(O)CC3CCC(C2)O3)c2cnn(-c3ccn[nH]3)c2n1 (configuration not stated) + COC1C(OC(N)=O)C(O)C(Oc2ccc3c(O)c(NC(=O)c4ccc(O)c(CC=C(C)C)c4)c(=O)oc3c2C)OC1(C)C .
// result Y

// query is_below(viability, T/C, 40%) for COc1cccc2c1C(=O)c1c(O)c3c(c(O)c1C2=O)CC(O)(C(=O)CO)CC3OC1CC(N)C(O)C(C)O1 (configuration not stated) + Nc1ccc(C#CCN(C(=O)Cc2ncc(C(F)(F)F)cc2C(F)(F)F)c2ccc(F)cc2)nn1 ?
// result Y

// query Regarding CCc1cc2c(N3CCc4c(cc(Cn5ccnc5)cc4-c4cn(C)nc4C(F)(F)F)C3=O)cc(C)nc2c(OC)n1 + Cc1cccc(N(C)C(=O)C2C(O)CCN2c2nc(C)cc(C(F)(F)F)c2C#N)c1 , kindly confirm whether its viability, T/C is beneath 40%.
// result Y

// query Here's an entry: CNCc1ccc(-c2[nH]c3cc(F)cc4c3c2CCNC4=O)cc1 + Cc1cccc(N(C)C(=O)C2C(O)CCN2c2nc(C)cc(C(F)(F)F)c2C#N)c1 . Is its viability, T/C below 40%?
// result N

// query Decide: viability, T/C of CC(C)n1c(=O)n(C)c2cnc3cc(F)c(-c4ccc(OCCCN5CCCCC5)nc4)cc3c21 + COC1C(OC(N)=O)C(O)C(Oc2ccc3c(O)c(NC(=O)c4ccc(O)c(CC=C(C)C)c4)c(=O)oc3c2C)OC1(C)C strictly below 40%?
// result N

// query Here's an entry: Nc1ccn(C2OC(CO)C(O)C2(F)F)c(=O)n1 (configuration not stated) + COC1C(OC(N)=O)C(O)C(Oc2ccc3c(O)c(NC(=O)c4ccc(O)c(CC=C(C)C)c4)c(=O)oc3c2C)OC1(C)C . Is its viability, T/C below 40%?
// result Y
